Collected set of pKi measured with Adenosine receptor A2a (Homo sapiens, UniProt P29274) across studies.
pKi: −log10 of the molar value.
# label = bin(measured pKi), where bins are group 1: < 8; group 2: ≥ 8 and < 9; group 3: ≥ 9

# count of solved cases: 3
Cc1cc(-c2sc(NC(=O)N3CC(=O)N4CCCCC4C3)nc2-c2cccc(C#N)c2)cc(C)n1 (stereo not drawn) = group 2
Cc1cc(-c2c(-c3cccc(C#N)c3)nn3ccc(N4CCN[C@@H](C(C)(C)O)C4)nc23)cc(Cl)n1 = group 2
O=C(N[C@H]1C[C@@H](n2cnc3c(NCC(c4ccccc4)c4ccccc4)nc(Cl)nc32)[C@H](O)[C@@H]1O)C1CC1 = group 2

Query: For this compound, which bin applies? O=C(N[C@@H]1CCNC1)c1nc(NCC(c2ccccc2)c2ccccc2)c2ncn([C@@H]3C[C@H](n4cc(CO)cn4)C(O)C3O)c2n1 (stereo partly drawn)
Reply: group 1

Query: In plain terms, what class is "Cc1cc(-c2c(-c3cccc(C#N)c3)nn3ccc(C(=O)NCC4(O)CC4)nc23)cc(Cl)n1" ?
Reply: group 3

Query: Exam item: assign "Cc1cc(-c2c(-c3cccc(C#N)c3)nn3ccc(C(=O)N[C@@H](C)[C@H](O)CO)nc23)cc(Cl)n1" to the correct category.
Reply: group 3

Query: Please report the category associated with "CCc1cc(-c2sc(NC(=O)N3CC4(COC4)C3)nc2-c2cccc(C#N)c2)cc(C)n1" , nothing else.
Reply: group 3

Query: Band for "CN(C)C1CN(c2ccn3nc(-c4ccco4)c(C(N)=O)c3n2)C1" ?
Reply: group 1
